System: Matricaria
procedureDetails: Pre-emergence test/greenhouse
Assay type: in vivo
assayContext: greenhouse, 125 g of ai./ha, after three weeks, 0%=no effect, 100%=total destruction
degree of damage to the plants, Matricaria for assorted compounds
Report the value in % with no unit label.

Data request: What value of measured degree of damage to the plants, Matricaria is listed for `CSc1nn(C(=O)NS(=O)(=O)c2c(C)csc2C)c(=O)n1C` ?
Data returned: 90

***
Data request: Name the reported degree of damage to the plants, Matricaria value associated with the compound `COc1nn(C(=O)NS(=O)(=O)c2c(C)csc2C)c(=O)n1C`
Data returned: 100

Data request: For `CCc1nn(C(=O)NS(=O)(=O)c2c(C)csc2C)c(=O)n1C` , what is its reported degree of damage to the plants, Matricaria?
Data returned: 100

Data request: State the recorded degree of damage to the plants, Matricaria for this entry: `CCOc1nn(C(=O)NS(=O)(=O)c2c(C)csc2C)c(=O)n1C`
Data returned: 100

Origin of measurements: patent US6686478B2
